Documented inhibition across a set of molecules
Biological target: Ephrin type-A receptor 3 (Homo sapiens);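 note: mean inhibition value reported from the GSK PKIS kinase profiling screen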
Sequence (whole entry): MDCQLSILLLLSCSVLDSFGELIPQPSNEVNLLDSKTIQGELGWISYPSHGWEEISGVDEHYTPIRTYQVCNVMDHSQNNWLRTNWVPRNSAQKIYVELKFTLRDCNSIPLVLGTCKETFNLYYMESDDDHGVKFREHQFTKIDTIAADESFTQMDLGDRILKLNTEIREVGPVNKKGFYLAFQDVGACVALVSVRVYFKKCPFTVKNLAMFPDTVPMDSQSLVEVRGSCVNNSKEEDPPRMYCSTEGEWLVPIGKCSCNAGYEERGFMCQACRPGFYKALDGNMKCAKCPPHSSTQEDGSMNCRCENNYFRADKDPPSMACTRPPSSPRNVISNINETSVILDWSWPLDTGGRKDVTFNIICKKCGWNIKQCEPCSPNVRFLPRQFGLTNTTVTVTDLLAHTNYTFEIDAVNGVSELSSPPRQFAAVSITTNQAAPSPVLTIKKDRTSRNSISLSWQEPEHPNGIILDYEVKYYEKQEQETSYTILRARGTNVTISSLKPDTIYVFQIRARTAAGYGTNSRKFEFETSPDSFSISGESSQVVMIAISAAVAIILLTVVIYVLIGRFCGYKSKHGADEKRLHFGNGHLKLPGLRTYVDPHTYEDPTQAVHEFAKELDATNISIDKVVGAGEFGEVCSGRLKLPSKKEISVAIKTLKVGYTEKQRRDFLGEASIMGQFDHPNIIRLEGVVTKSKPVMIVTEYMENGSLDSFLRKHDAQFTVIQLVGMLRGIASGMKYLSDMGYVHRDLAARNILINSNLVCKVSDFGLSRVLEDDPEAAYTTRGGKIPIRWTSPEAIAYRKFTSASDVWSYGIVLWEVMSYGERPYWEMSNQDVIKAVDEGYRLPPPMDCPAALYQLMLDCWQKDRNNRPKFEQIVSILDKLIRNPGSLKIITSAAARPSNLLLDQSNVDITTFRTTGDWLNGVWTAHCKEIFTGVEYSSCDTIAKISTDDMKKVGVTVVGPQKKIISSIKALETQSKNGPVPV
Conditions: at 1 µM

{"columns": ["Line Notation", "Unit Of Measurement", "inhibition"],
 "data": [
  ["NS(=O)(=O)c1ccc(Nc2cc(-c3cccc(O)c3)n[nH]2)cc1", "%", 6.36],
  ["COC(=O)c1cncc(/C=C/c2c(C)cc(O)cc2C)c1", "%", 16.2],
  ["ON=C1CCc2cc(-c3nc(C4CCNCC4)[nH]c3-c3ccncc3)ccc21", "%", -2.2],
  ["COc1cc2ncnc(Nc3ccc4c(cnn4Cc4ccccc4)c3)c2cc1OC", "%", 2.12],
  ["CN1CCN(C(=O)c2ccc(NC(=O)Nc3ccc(N(C)c4ccnc(Nc5ccc(CS(C)(=O)=O)cc5)n4)cc3)cc2)CC1", "%", 4.49],
  ["c1ccc(Cc2nc3ccc(Nc4ncnc5ccccc45)cc3[nH]2)cc1", "%", 4.41],
  ["COc1ccc(-c2nn3ncccc3c2-c2ccnc(Nc3cccc(C(F)(F)F)c3)n2)cc1", "%", 5.21],
  ["CCn1c(-c2nonc2N)nc2c(C#CC(C)(C)O)nc(OCCNC)cc21", "%", 3.22],
  ["CC(C)c1ccc(Nc2nccc(-c3cnn4ncccc34)n2)cc1", "%", 4.55],
  ["C[C@@H](Oc1cc(-n2cnc3ccc(OC[C@@H](O)CO)cc32)sc1C(N)=O)c1ccccc1Cl", "%", 1.69],
  ["O=C1Nc2ccccc2/C1=C/Nc1ccc2[nH]c(=O)[nH]c2c1", "%", 9.27],
  ["COc1cc2ncn(-c3cc(OCc4ccccc4S(C)(=O)=O)c(C#N)s3)c2cc1OC", "%", 13.6],
  ["OCc1ccc(-c2nc(-c3ccccn3)c(-c3ccc4c(c3)OCO4)[nH]2)cc1", "%", 6.97],
  ["COc1cccc(-n2nc(C)c3c(N/N=C(\\C)c4ccncc4)ncnc32)c1", "%", 2.37],
  ["N#Cc1cccc(Nc2nccc(-c3cnn4ncccc34)n2)c1", "%", 19.2],
  ["NS(=O)(=O)c1cccc(Nc2cc(-c3ccc(F)cc3)n[nH]2)c1", "%", 4.16],
  ["Nc1ccc(C#Cc2cncnc2Nc2ccc(OCc3cccc(F)c3)c(Cl)c2)cc1", "%", 3.02],
  ["Cc1ccc(C(=O)NC2CC2)cc1-c1ccc2[nH]ncc2c1", "%", -6.53],
  ["Cc1ccc2c(-c3ccnc(Nc4ccc5c(c4)OCCO5)n3)c(-c3ccc(C(F)(F)F)cc3)nn2n1", "%", 0],
  ["CN(C)c1cc2c(Nc3ccc4c(cnn4Cc4ccccc4)c3)ncnc2cn1", "%", 3.25],
  ["Nc1nccc(-c2c(-c3ccc(F)cc3)nn3cc(C(F)(F)F)ccc23)n1", "%", -0.28]
]}
